# TESTED SYSTEM: ScBem1-D1
# EXPERIMENTAL DETAILS: SPOT peptide array binding signal intensity (averaged, normalized) (arbitrary units (background-subtracted, floor 0; scale differs between SH3 domains)); higher = stronger binding of the SH3 domain to the peptide
SPOT peptide array binding signal intensity overview
Please reply with the number alone, leaving off any unit.

- KRRTSLFPWLHKPGI: 2

// SPOT peptide array binding signal intensity value for FYNRTAFQLPGDARV : 0.5

// SPOT peptide array binding signal intensity value for VRTRRRPPPPPIPST : 46

// SPOT peptide array binding signal intensity value for AHFQPQRTAPKPPIS : 6

// SPOT peptide array binding signal intensity value for RRRRRPHRIERPLSN : 98
